# experimental-protocol: Associated plasma PK in the LU5269 xenograft study
# Type: in vivo, NOD/SCID mice
# setup-conditions: NOD/SCID, mouse, 100 mg/kg; 100 mpk, PO, QD*21, plasma after the last administration
test-readout: AUC(0-t) (µg·h/mL)
Give a bare numeral; the unit µg·h/mL is implied.

Looking up CNC(=O)c1ccc(NCC#Cc2cc3c(N[C@@H]4CCN(C)C[C@@H]4F)cccc3n2CC(F)(F)F)c(OC)c1 [Control compound, reference compound] , I see its AUC(0-t) listed as 413

----------
# experimental-protocol: Associated plasma PK in the LU5269 xenograft study
# Assay type: in vivo, NOD/SCID mice
# setup-conditions: mouse, 150 mg/kg; 150mpk, PO, QD*21, plasma after the last administration
test-readout: Cmax
The reply must contain the numeric value and, after it, the unit.

Cmax in this record for CN1CC[C@@H](Nc2cccc3c(CC(F)(F)F)c(C#CCNC(=O)c4cnn(C(C)(C)C)c4N)nn23)[C@@H](F)C1 [Compound 047] : 5550 ng/mL

----------
# target-of-assay: p53-Y220C mutant protein (Homo sapiens, UniProt P04637, Y220C)
# Construct: The recombinant Y220C p53 DBD protein with his-tag
# experimental-protocol: In vitro DNA binding activity assay (TR-FRET)
# Format: biochemical
# setup-conditions: concentration required to increase the binding activity of protein to DNA by 50%
test-readout: SC150 (nM)
Provide the reading as a plain figure in nM.

Below, 5 molecules whose answers are already recorded.
Cc1nc(C(=O)NCC#Cc2nn3c(N[C@@H]4CCN(C)C[C@@H]4F)cccc3c2CC(F)(F)F)cn1C [Compound 318]    59
CN1CC[C@@H](Nc2cccc3c(CC(F)(F)F)c(C#CCNC(=O)c4ccc(N)nc4)nn23)[C@@H](F)C1 [Compound 296]    21
CN1CC[C@@H](Nc2cccc3c(CC(F)(F)F)c(C#CCNC(=O)c4cnn5c4CC(C)(C)C5)nn23)[C@@H](F)C1 [Compound 146]    13
CN1CC[C@@H](Nc2cccc3c(CC(F)(F)F)c(C#CCNC(=O)c4cnn(C(C)(C)CO)c4)nn23)[C@@H](F)C1 [Compound 232]    8
CN1CC[C@@H](Nc2cccc3c(CC(F)(F)F)c(C#CCNC(=O)c4cnn(C(C)(C)C5CC5)c4)nn23)[C@@H](F)C1 [Compound 346]    18

SC150 in this record for CN1CC[C@@H](Nc2cccc3c(CC(F)(F)F)c(C#CCNC(=O)c4ccc(N5CCOCC5)nc4)nn23)[C@@H](F)C1 [Compound 275] : 27

Item: CN1CCC(Nc2cccc3c(CC(F)(F)F)c(C#CCNC(=O)c4cnn(C(C)(C)C)c4N)nn23)CC1 [Compound 370] | SC150: 9

----------
# experimental-protocol: Pharmacokinetic study in SD rats
# Format: in vivo
# setup-conditions: rat, plasma, 50 mg/kg, po 50 mpk
In this section we review reported Cmax values for a set of molecules.
Give your result in ng/mL as a bare value.

CN1CC[C@@H](Nc2cccc3c(CC(F)(F)F)c(C#CCNC(=O)c4cnn(C(C)(C)C)c4N)nn23)[C@@H](F)C1    13200

The molecule CNC(=O)c1ccc(NCC#Cc2cc3c(N[C@@H]4CCN(C)C[C@@H]4F)cccc3n2CC(F)(F)F)c(OC)c1 [Control compound, reference compound] showed Cmax equal to 11500

----------
# experimental-protocol: Associated plasma PK in the LU5269 xenograft study
# Type: in vivo, NOD/SCID mice
# setup-conditions: mouse, 50 mg/kg; 50mpk, PO, QD*21, plasma after the last administration
test-readout: AUC(0-t) (ng·h/mL)
Report the figure in ng·h/mL without appending any unit label.

Sample CN1CC[C@@H](Nc2cccc3c(CC(F)(F)F)c(C#CCNC(=O)c4cnn(C(C)(C)C)c4N)nn23)[C@@H](F)C1 [Compound 047] ; AUC(0-t) observed: 11700

----------
# experimental-protocol: Pharmacokinetic study in beagles
# Type: in vivo
# setup-conditions: dog, plasma, 1 mg/kg, IV 1mpk
test-readout: half-life (min)
Give the number; min is assumed, so skip it.

Looking up CN1CC[C@@H](Nc2cccc3c(CC(F)(F)F)c(C#CCNC(=O)c4cnn(C(C)(C)C)c4N)nn23)[C@@H](F)C1 [Compound 047] , I found its half-life recorded as 336

----------
# experimental-protocol: Associated plasma PK in the LU5269 xenograft study
# Assay type: in vivo, NOD/SCID mice
# setup-conditions: mouse, 50 mg/kg; 50mpk, PO, QD*21, plasma after the last administration
test-readout: half-life (h)
# number only, unit h dropped from output

Kindly note the recorded half-life for `CN1CC[C@@H](Nc2cccc3c(CC(F)(F)F)c(C#CCNC(=O)c4cnn(C(C)(C)C)c4N)nn23)[C@@H](F)C1` , which is 2.2

----------
# target-of-assay: p53-Y220C mutant protein (Homo sapiens, UniProt P04637, Y220C)
# Construct: The recombinant Y220C p53 DBD protein with his-tag
# experimental-protocol: In vitro DNA binding activity assay (TR-FRET)
# Type: biochemical
# setup-conditions: concentration required to increase the binding activity of protein to DNA by 50%
# class assignment by measured SC150: low bin = under 9 nM, mid bin = from 9 nM up to 30 nM, high bin = 30 nM and over

CN1CC[C@@H](Nc2cccc3c(CC(F)(F)F)c(C#CCNC(=O)c4ccn5c4COCC5)nn23)[C@@H](F)C1    mid bin

Band assignment needed for `CN1CC[C@@H](Nc2cccc3c(CC(F)(F)F)c(C#CCNC(=O)c4cn(CC(C)(C)C)nc4N)nn23)[C@@H](F)C1` please.
mid bin

Hello team, could you let me know which band the following compound falls into: `CCC(C)(C)n1ncc(C(=O)NCC#Cc2nn3c(N[C@@H]4CCN(C)C[C@@H]4F)cccc3c2CC(F)(F)F)c1N`
low bin

Category of `Cc1cc(N)c(C(=O)NCC#Cc2nn3c(N[C@@H]4CCN(C)C[C@@H]4F)cccc3c2CC(F)(F)F)cn1` , please.
high bin

Which class does `CC(C)c1c(C#CCNC(=O)c2cnn(C(C)(C)C)c2N)nn2c(N[C@@H]3CCN(C)C[C@@H]3F)cccc12` fall in?
high bin

Which SC150 band matches `CCc1c(C#CCNC(=O)c2cnn(C(C)(C)C)c2N)nn2c(N[C@@H]3CCN(C)C[C@@H]3F)cccc12` ?
mid bin

Category lookup for the compound `CN1CC[C@@H](Nc2cccc3c(CC(F)(F)F)c(C#CCNC(=O)c4cnn(C)c4F)nn23)[C@@H](F)C1`
mid bin

Category of `CN1CC[C@@H](Nc2cccc3c(CC(F)(F)F)c(C#CCNC(=O)c4cnn(C5(O)CC5)c4)nn23)[C@@H](F)C1` , please.
mid bin

Which class is correct for the following compound? `Cc1ccc(C(=O)NCC#Cc2nn3c(N[C@@H]4CCN(C)C[C@@H]4F)cccc3c2CC(F)(F)F)cn1`
mid bin

Which band does `COCC(C)(C)n1cc(C(=O)NCC#Cc2nn3c(N[C@@H]4CCN(C)C[C@@H]4F)cccc3c2CC(F)(F)F)cn1` fall in?
low bin

Hello team, could you let me know which band the following compound falls into: `CN1CC[C@@H](Nc2cccc3c(CC(F)(F)F)c(C#CCNC(=O)c4cnn(C5CCOCC5)c4)nn23)[C@@H](F)C1`
low bin

Which class holds CC(C1CC1)n1cc(C(=O)NCC#Cc2nn3c(N[C@@H]4CCN(C)C[C@@H]4F)cccc3c2CC(F)(F)F)cn1 (some centres unmarked) ?
low bin

Could you place `CCc1ccc(C(=O)NCC#Cc2nn3c(N[C@@H]4CCN(C)C[C@@H]4F)cccc3c2CC(F)(F)F)cn1` in its proper category? Many thanks.
high bin

Category lookup for the compound CC(C1CC1)n1ncc(C(=O)NCC#Cc2nn3c(N[C@@H]4CCN(C)C[C@@H]4F)cccc3c2CC(F)(F)F)c1N (some centres unmarked) [Compound 291]
low bin

Band for `CN1CC[C@@H](Nc2cccc3c(CC(F)(F)F)c(C#CCNC(=O)c4ccc(F)cc4)nn23)[C@@H](F)C1` ?
high bin

Where would `CN1CC[C@@H](Nc2cccc3c(CC(F)(F)F)c(C#CCNC(=O)c4cnn(C56CC(C5)C6)c4N)nn23)[C@@H](F)C1` land among the classes by reported SC150?
low bin

Entry `CN1CC[C@@H](Nc2cccc3c(CC(F)(F)F)c(C#CCNC(=O)c4cn(C)cn4)nn23)[C@@H](F)C1` belongs to which category?
high bin

----------
# experimental-protocol: Pharmacokinetic study in beagles
# Type: in vivo
# setup-conditions: dog, plasma, 1 mg/kg, IV 1mpk
test-readout: C0

Please fill in: C0 reported for `CN1CC[C@@H](Nc2cccc3c(CC(F)(F)F)c(C#CCNC(=O)c4cnn(C(C)(C)C)c4N)nn23)[C@@H](F)C1` = 414 ng/mL

----------
# experimental-protocol: Pharmacokinetic study in beagles
# Assay type: in vivo
# setup-conditions: beagle, dog, plasma, 2 mg/kg, PO 2mpk
test-readout: AUC(0-t)
Please append the unit to your numeric answer.

Note to self: AUC(0-t) recorded for CNC(=O)c1ccc(NCC#Cc2cc3c(N[C@@H]4CCN(C)C[C@@H]4F)cccc3n2CC(F)(F)F)c(OC)c1 [Control compound, reference compound] was 1490 ng·h/mL
